Test system: MV-4-11
test_name: Proliferation assay (resazurin, leukemia cell lines), MV-4-11
Format: cell-based
measurement_parameters: Homo sapiens, MV4-11, read-out: 72 h Growth inhibition GI50, MV-4-11 cells
outcome_measure: GI50 (nM)

Consider the following illustrative entries.
# smiles_entry, unit_descriptor, GI50
data = [
    ("O=C(c1ccco1)N1CCN(c2ccc(Nc3nccc(-c4cnc5ccc(-c6ccccc6)cn45)n3)cn2)CC1", "nM", 25),
    ("Cc1cnc(Nc2ccc(N3CCN(C)CC3)nc2)nc1-c1cnc2ccc(-c3ccccc3)cn12", "nM", 813),
    ("CCS(=O)(=O)N1CCN(c2ccc(Nc3nccc(-c4cnc5ccc(Br)cn45)n3)cn2)CC1", "nM", 32),
]

a = CN1CCN(Cc2ccc(Nc3nccc(-c4cnc5ccc(Br)cn45)n3)cn2)CC1
b = O=C(c1ccco1)N1CCN(c2ccc(Nc3nccc(-c4cnc5ccc(Br)cn45)n3)cn2)CC1
c = CS(=O)(=O)N1CCN(c2ccc(Nc3nccc(-c4cnc5ccc(-c6cccs6)cn45)n3)cn2)CC1
d = c1ccc(-c2ccc3ncc(-c4ccnc(Nc5ccc(N6CCC6)nc5)n4)n3c2)cc1
In this exercise, place the 4 compounds in ascending sequence of their recorded GI50. Enter labels, ranked according to the request.
c, a, b, d
(c: 11 nM, a: 35 nM, b: 52 nM, d: 740 nM)

----------
subject_of_test: CDK1/CyclinB (Homo sapiens, UniProt P06493)
Sequence (P06493 whole entry, species assumed): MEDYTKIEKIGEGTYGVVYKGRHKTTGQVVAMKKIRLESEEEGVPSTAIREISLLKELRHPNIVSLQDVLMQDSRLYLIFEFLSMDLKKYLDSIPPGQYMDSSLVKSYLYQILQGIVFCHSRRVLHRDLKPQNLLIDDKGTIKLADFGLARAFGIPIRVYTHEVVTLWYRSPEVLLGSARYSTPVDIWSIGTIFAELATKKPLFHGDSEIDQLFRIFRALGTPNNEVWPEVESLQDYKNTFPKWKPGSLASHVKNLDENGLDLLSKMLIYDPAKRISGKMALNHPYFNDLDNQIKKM
Sequence (P14635 whole entry partner, species assumed): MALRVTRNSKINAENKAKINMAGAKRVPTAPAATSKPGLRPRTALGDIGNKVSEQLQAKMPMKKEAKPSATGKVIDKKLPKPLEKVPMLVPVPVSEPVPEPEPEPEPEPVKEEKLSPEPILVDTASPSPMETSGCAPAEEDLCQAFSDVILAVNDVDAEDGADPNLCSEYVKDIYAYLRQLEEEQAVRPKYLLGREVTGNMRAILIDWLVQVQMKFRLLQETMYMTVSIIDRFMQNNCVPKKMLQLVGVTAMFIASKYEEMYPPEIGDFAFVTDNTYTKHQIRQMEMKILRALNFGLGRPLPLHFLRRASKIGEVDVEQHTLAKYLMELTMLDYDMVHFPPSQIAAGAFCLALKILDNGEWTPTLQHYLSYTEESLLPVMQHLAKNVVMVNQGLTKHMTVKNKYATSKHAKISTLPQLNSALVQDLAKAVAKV
test_name: ADP Glo kinase assay, CDK1/CyclinB
measurement_parameters: Km ATP, read-out: Enzymatic inhibition, Ki, CDK1 B
pKi: −log10 of the molar value.
outcome_measure: pKi

# compound, subject_of_test, pKi
rows = [
    ("CN1CCN(c2ccc(Nc3nccc(-c4cnc5ccc(F)cn45)n3)cn2)CC1 [Compound 12]", "CDK1/CyclinB (Homo sapiens, UniProt P06493)", 6.06),
    ("CN(C)c1ccc(Nc2nccc(-c3cnc4ccc(C5=CCNCC5)cn34)n2)cn1 [Compound 69]", "CDK1/CyclinB (Homo sapiens, UniProt P06493)", 6.94),
]

1 = CS(=O)(=O)N1CCN(c2ccc(Nc3nccc(-c4cnc5ccc(-c6ccncc6)cn45)n3)cn2)CC1 [Compound 18]
2 = CS(=O)(=O)N1CCN(c2ccc(Nc3nccc(-c4cnc5ccc(-c6cccnc6)cn45)n3)cn2)CC1 [Compound 19]
For the pair 1 and 2 , which member has the lower pKi number? In your reply, give the label of the chosen option.
2
(2: 6.11, 1: 6.35)

----------
subject_of_test: CDK7/CyclinH/Mat1 (Homo sapiens)
test_name: ADP Glo kinase assay, CDK7/CyclinH/Mat1
Format: biochemical
measurement_parameters: compound at 1 μM, read-out: Residual enzymatic activity (%) at 1 μM, CDK7 H
outcome_measure: remaining activity at 1 µM (%)

# compound, remaining activity at 1 µM, %
data = [
    ("CCS(=O)(=O)N1CCN(c2ccc(Nc3nccc(-c4cnc5ccc(Br)cn45)n3)cn2)CC1 [Compound 59]", 88),
]

P = CN1CCN(c2ccc(Nc3nccc(-c4cnc5ccc(-c6cnn(C(F)F)c6)cn45)n3)cn2)CC1 [Compound 70]
Q = Fc1cnc(Nc2ccc(Cl)nc2)nc1-c1cnc2ccc(-c3ccccc3)cn12 [Compound 34]
For the pair P and Q , which member has the lower remaining activity at 1 µM number? In your reply, give the label of the chosen option.
P
(P: 40%, Q: 92%)

----------
subject_of_test: CDK7/CyclinH/Mat1 (Homo sapiens, UniProt P50613)
Sequence (P50613 whole entry, species assumed): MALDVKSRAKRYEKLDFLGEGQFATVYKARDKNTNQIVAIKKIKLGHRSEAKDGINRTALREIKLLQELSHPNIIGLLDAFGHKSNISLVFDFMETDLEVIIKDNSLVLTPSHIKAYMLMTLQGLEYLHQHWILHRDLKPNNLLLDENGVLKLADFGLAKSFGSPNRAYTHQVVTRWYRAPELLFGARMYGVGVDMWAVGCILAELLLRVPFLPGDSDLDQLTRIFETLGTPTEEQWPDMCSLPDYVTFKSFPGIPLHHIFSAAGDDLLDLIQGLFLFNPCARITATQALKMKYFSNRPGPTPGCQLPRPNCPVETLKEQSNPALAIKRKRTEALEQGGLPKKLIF
Sequence (P51946 whole entry partner, species assumed): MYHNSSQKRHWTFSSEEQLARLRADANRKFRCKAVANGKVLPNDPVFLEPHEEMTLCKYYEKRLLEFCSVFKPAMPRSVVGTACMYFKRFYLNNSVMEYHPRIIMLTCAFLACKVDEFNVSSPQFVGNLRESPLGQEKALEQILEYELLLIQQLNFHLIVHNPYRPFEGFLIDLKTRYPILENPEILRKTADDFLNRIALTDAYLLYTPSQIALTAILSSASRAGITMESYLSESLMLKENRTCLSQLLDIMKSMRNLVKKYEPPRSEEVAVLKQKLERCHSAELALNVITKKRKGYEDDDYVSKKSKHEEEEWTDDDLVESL
Sequence (P51948 whole entry partner, species assumed): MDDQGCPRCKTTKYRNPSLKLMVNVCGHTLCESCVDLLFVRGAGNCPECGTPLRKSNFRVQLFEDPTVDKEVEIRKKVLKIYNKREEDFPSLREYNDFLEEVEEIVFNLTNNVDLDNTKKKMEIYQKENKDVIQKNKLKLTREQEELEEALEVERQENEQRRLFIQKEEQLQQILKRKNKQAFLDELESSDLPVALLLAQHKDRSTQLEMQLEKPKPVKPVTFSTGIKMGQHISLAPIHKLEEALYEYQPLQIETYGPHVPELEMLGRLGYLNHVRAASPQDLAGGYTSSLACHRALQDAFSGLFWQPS
test_name: ADP Glo kinase assay, CDK7/CyclinH/Mat1
Type: biochemical
measurement_parameters: compound at 1 μM, read-out: Residual enzymatic activity (%) at 1 μM, CDK7 H
outcome_measure: remaining activity at 1 µM (%)

P = O=C(c1ccco1)N1CCN(c2ccc(Nc3nccc(-c4cnc5ccc(-c6ccccc6)cn45)n3)cn2)CC1
Q = CC(=O)N1CCN(c2ccc(Nc3ncc(C)c(-c4cnc5ccccn45)n3)cn2)CC1
Given P and Q , report the one with the higher recorded remaining activity at 1 µM. In your reply, give the label of the chosen option.
P
(P: 93%, Q: 20%)

1 = CCOc1ccc(Nc2ncc(F)c(-c3cnc4ccc(-c5ccccc5)cn34)n2)cn1
2 = CN(C)c1ccc(Nc2nccc(-c3cnc4ccc(C5=CCN(C(=O)OC(C)(C)C)CC5)cn34)n2)cn1
For the pair 1 and 2 , which member has the lower remaining activity at 1 µM number? In your reply, give the label of the chosen option.
2
(2: 68%, 1: 100%)

----------
subject_of_test: CDK7/CyclinH/Mat1 (Homo sapiens, UniProt P50613)
test_name: ADP Glo kinase assay, CDK7/CyclinH/Mat1
measurement_parameters: Km ATP, read-out: Enzymatic inhibition, Ki, CDK7 H
pKi: −log10 of the molar value.
outcome_measure: pKi

# compound, pKi
rows = [
    ("CN1CCN(c2ccc(Nc3nccc(-c4cnc5ccccn45)n3)cn2)CC1 [Compound 1]", 5.96),
    ("Cc1ccc2ncc(-c3ccnc(Nc4ccc(N5CCN(C)CC5)nc4)n3)n2c1 [Compound 35]", 7.08),
    ("Cc1cnc(Nc2ccc(N3CCN(C)CC3)nc2)nc1-c1cnc2ccccn12 [Compound 3]", 5.54),
    ("CN1CCN(c2ccc(Nc3nccc(-c4cnc5ccc(-c6cccnc6)cn45)n3)cn2)CC1 [Compound 7]", 5.56),
    ("CCN1CCN(Cc2ccc(Nc3nccc(-c4cnc5ccc(Br)cn45)n3)cn2)CC1 [Compound 79]", 6.77),
    ("Cc1cnc(Nc2ccc(N3CCNCC3)nc2)nc1-c1cnc2ccccn12 [Compound 13]", 6.39),
]

A = CN1CCN(c2ccc(Nc3nccc(-c4cnc5ccc(F)cn45)n3)cn2)CC1 [Compound 12]
B = CC(C)N1CCN(c2ccc(Nc3nccc(-c4cnc5ccc(Cl)cn45)n3)cn2)CC1 [Compound 37]
For the pair A and B , which member has the lower pKi number? In your reply, give the label of the chosen option.
A
(A: 5.77, B: 6.76)

----------
subject_of_test: FLT3-ITD (Homo sapiens)
test_name: ADP Glo kinase assay, FLT3-ITD
measurement_parameters: Km ATP 100 μM, read-out: Enzymatic inhibition, Ki, FLT3-ITD
pKi: −log10 of the molar value.
outcome_measure: pKi

Consider the following illustrative entries.
# compound, pKi
data = [
    ("CN1CCN(c2ccc(Nc3ncc(F)c(-c4cnc5ccc(-c6ccccc6)cn45)n3)cn2)CC1 [Compound 28]", 7.19),
    ("CS(=O)(=O)N1CCN(c2ccc(Nc3nccc(-c4cnc5ccc(-c6ccccc6)cn45)n3)cn2)CC1 [Compound 17]", 7.80),
]

1 = CCCNc1ccc(Nc2nccc(-c3cnc4ccc(Br)cn34)n2)cn1 [Compound 74]
2 = CN1CCN(c2ccc(Nc3nccc(-c4cnc5ccc(-c6ccccc6)cn45)n3)cn2)CC1 [Compound 6]
3 = Brc1ccc2ncc(-c3ccnc(Nc4ccc(N5CCCC5)nc4)n3)n2c1 [Compound 26]
4 = CC(=O)N1CCN(c2ccc(Nc3ncc(F)c(-c4cnc5ccccn45)n3)cn2)CC1 [Compound 10]
5 = CN1CCN(c2ccc(Nc3nccc(-c4cnc5ccc(C(F)(F)F)cn45)n3)cn2)CC1 [Compound 36]
In this exercise, place the 5 compounds in ascending sequence of their recorded pKi. Enter labels, ranked according to the request.
3, 1, 4, 5, 2

----------
subject_of_test: FLT3-ITD (Homo sapiens, UniProt P36888)
test_name: ADP Glo kinase assay, FLT3-ITD
measurement_parameters: Km ATP 100 μM, read-out: Enzymatic inhibition, Ki, FLT3-ITD
outcome_measure: Ki (nM)

Consider the following illustrative entries.
# smiles_entry, Ki [nM]
measured = [
    ("CCCNc1ccc(Nc2nccc(-c3cnc4ccc(-c5cnn(C(F)F)c5)cn34)n2)cn1", 100),
    ("CS(=O)(=O)N1CCN(c2ccc(Nc3nccc(-c4cnc5ccc(-c6cccs6)cn45)n3)cn2)CC1", 6),
    ("CC(=O)N1CCN(c2ccc(Nc3nccc(-c4cnc5ccc(-c6cn[nH]c6)cn45)n3)cn2)CC1", 25),
    ("CN1CCN(c2ccc(Nc3nccc(-c4cnc5ccc(-c6cn[nH]c6)cn45)n3)cn2)CC1", 8),
    ("CN1CCN(c2ccc(Nc3nccc(-c4cnc5ccc(Br)cn45)n3)cn2)CC1", 79),
    ("CC(=O)N1CCN(c2ccc(Nc3nccc(-c4cnc5ccccn45)n3)cn2)CC1", 32),
]

I = CN(C)c1ccc(Nc2nccc(-c3cnc4ccc(Br)cn34)n2)cn1
II = CN1CCN(c2ccc(Nc3nccc(-c4cnc5ccc(-c6cccnc6)cn45)n3)cn2)CC1
For the pair I and II , which member has the lower Ki number? In your reply, give the label of the chosen option.
II

----------
subject_of_test: CDK9/CyclinT1 (Homo sapiens, UniProt P50750)
Sequence (P50750 whole entry, species assumed): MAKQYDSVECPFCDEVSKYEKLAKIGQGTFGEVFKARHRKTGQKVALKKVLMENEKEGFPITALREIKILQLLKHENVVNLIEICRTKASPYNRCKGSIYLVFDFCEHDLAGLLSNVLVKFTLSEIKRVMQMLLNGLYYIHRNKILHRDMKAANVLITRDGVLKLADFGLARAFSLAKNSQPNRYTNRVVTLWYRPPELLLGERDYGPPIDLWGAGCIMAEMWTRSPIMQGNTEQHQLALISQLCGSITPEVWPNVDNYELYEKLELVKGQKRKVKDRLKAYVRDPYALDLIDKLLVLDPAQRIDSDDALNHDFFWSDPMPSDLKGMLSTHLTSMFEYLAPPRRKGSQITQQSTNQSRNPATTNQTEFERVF
Sequence (O60563 whole entry partner, species assumed): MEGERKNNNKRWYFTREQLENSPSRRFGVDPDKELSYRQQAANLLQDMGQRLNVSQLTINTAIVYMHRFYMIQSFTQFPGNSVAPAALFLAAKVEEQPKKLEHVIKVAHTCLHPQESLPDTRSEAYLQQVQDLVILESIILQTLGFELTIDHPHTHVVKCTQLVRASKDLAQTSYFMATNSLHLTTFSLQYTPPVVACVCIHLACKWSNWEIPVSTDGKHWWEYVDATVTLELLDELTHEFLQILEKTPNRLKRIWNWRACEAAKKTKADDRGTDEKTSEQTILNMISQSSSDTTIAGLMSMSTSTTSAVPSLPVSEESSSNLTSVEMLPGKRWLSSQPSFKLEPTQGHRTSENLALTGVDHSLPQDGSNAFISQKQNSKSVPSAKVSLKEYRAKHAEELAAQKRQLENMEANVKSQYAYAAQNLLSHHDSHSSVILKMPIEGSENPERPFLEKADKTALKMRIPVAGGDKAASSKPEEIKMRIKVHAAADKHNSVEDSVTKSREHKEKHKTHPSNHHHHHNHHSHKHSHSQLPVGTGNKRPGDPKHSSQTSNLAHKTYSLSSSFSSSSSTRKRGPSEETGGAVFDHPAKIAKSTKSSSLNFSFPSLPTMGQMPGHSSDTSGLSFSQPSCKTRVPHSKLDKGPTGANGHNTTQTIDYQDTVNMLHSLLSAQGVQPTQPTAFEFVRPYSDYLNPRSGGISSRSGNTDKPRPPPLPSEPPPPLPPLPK
test_name: ADP Glo kinase assay, CDK9/CyclinT1
Assay type: biochemical
measurement_parameters: CDK9/CyclinT1; Km ATP; read-out: Enzymatic inhibition, Ki, CDK9 T1
pKi: −log10 of the molar value.
outcome_measure: pKi

# molecule, pKi
data = [
    ("Brc1ccc2ncc(-c3ccnc(Nc4ccc(N5CCNCC5)nc4)n3)n2c1", 7.54),
    ("CN1CCN(Cc2ccc(Nc3nccc(-c4cnc5ccc(Br)cn45)n3)cn2)CC1", 7.29),
    ("CC(=O)N1CCN(c2ccc(Nc3nccc(-c4cnc5ccc(Br)cn45)n3)cn2)CC1", 6.14),
    ("CC(=O)N1CCN(c2ccc(Nc3nccc(-c4cnc5ccc(-c6ccccc6)cn45)n3)cn2)CC1", 7.27),
    ("COC(=O)c1ccc(Nc2nccc(-c3cnc4ccc(Br)cn34)n2)cn1", 6.79),
]

a = CN(C)c1ccc(Nc2nccc(-c3cnc4ccc(-c5ccc(F)nc5)cn34)n2)cn1
b = CS(=O)(=O)N1CCN(c2ccc(Nc3nccc(-c4cnc5ccc(-c6cccnc6)cn45)n3)cn2)CC1
c = CN1CCN(c2ccc(Nc3nccc(-c4cnc5ccc(-c6cn[nH]c6)cn45)n3)cn2)CC1
Place the items in sequence of falling pKi. Enter labels, ranked according to the request.
c, b, a
